Molecular target: gp41 of HIV-1 strain HXB2D with mutation V38A (HIV-1 strain HXB2D, UniProt P04578)
Test: cell-based or functional assay
Starred links: 1 amine or outer side, 2 acyl side, 3 side chain; linkers in the order of their positions; H or OH if unused. Positions of bridges follow the written chain, without caps; N, C: chain ends. Non-standard residues stand in square brackets, D forms with d. tBuAla = CC(C)(C)C[C@H](N)C(=O)O; Suc = O=C(CCC(=O)[*:2])[*:1]; Nva = CCC[C@H](N)C(=O)O; B1 = not defined here; B3 = not defined here
Recorded Endpoint: fold change in EC50, HIV-HXB2D V38A mutant (fold)
Provide the reading as a plain figure in fold.

// below: answered binders
[[record]]
binder = "Ac-ACY[tBuAla]ACIEALIRAAQEQQEKNEAALR-NH2 (linker 2-6 via B1; reading uncertain) [peptide 60]"
unit_abbrev = "fold"
value_reported = 18

[[record]]
binder = "Suc-ACYLACIEALIRA[Nva]QEQQEKNEAALR-NH2 (linker 2-6 via B1; reading uncertain) [peptide 46]"
unit_abbrev = "fold"
value_reported = 6

[[record]]
binder = "Suc-CYLACIEALIRAAQEQQEKNEAALR-NH2 (linker 1-5 via B1; reading uncertain) [peptide 26]"
unit_abbrev = "fold"
value_reported = 19

[[record]]
binder = "Ac-ENYLALIEALIRAAQEQQEKNEAALL-NH2 [peptide 9]"
unit_abbrev = "fold"
value_reported = 72

[[record]]
binder = "Suc-CYLACIEELIRKAQEQQEKNEAAL[tBuAla]-NH2 (linker 1-5 via B3; reading uncertain) [peptide 27]"
unit_abbrev = "fold"
value_reported = 28

[[record]]
binder = "Ac-ECYLACIEALIRAAQEQQEKNEAALR-NH2 (linker 2-6 via B1; reading uncertain) [peptide 45]"
unit_abbrev = "fold"
value_reported = 14

[[record]]
binder = "Ac-ACYAACIEALIRAAQEQQEKNEAALR-NH2 (linker 2-6 via ortho‑xylene) [peptide 64]"
unit_abbrev = "fold"
value_reported = 15

[[record]]
binder = "Ac-ACYAACIEALIRAAQEQQEKNEAALR-NH2 (linker 2-6 via 1,4‑dimethylnaphthyl) [peptide 89]"
unit_abbrev = "fold"
value_reported = 75


[in] What does the data say about its fold change in EC50, HIV-HXB2D V38A mutant? Entry: Ac-ANYAALIEALIRAAQEQQEKNEAALR-NH2 [peptide 2]
[out] 61

[in] What does the data say about its fold change in EC50, HIV-HXB2D V38A mutant? Entry: Ac-ANYAALIEALIRKAQEQQEKNEAALR-NH2 [peptide 5]
[out] 53

[in] What does the data say about its fold change in EC50, HIV-HXB2D V38A mutant? Entry: Ac-ACYAACIEALIRAAQEQQEKNEAALR-NH2 (linker 2-6 via meta‑xylene) [peptide 65]
[out] 16

The measured values listed here are drawn from patent US20140357577A1.
